# Tested on: MRP1 cells, doxorubicin viability shift, 10 uM compound
# Method: viability protection against doxorubicin, MRP-1 line – cell-based, doxorubicin EC50 shift, dose response (AID 844)
Activity calls are given as the source filed them. How the calls were made is not given here.
Lab note: assign the record to one of active, inactive

CCOC(=O)c1sc(-c2ccc(F)cc2)cc1NC(=O)Nc1ccccc1OC | inactive
O=c1[nH]c(C2CCCN(S(=O)(=O)c3ccccc3)C2)nc2c1nnn2Cc1ccccc1 (configuration not stated) | inactive
O=C(NC1CCCCCC1)c1nnc(Cc2ccc(Cl)cc2)o1 | inactive

Next, consider the following molecule.
// outcome(item) with item = O=C(NCCN1C(=O)S/C(=C/c2ccccc2)C1=O)C1CCCN1C(=O)c1cccs1 (configuration not stated)
inactive

----------
# Tested on: MRP1 cells, doxorubicin viability shift, 10 uM compound
# Method: viability protection against doxorubicin, MRP-1 line – cell-based, doxorubicin EC50 shift, dose response (AID 844)
Quantity name: fold increase in Dox EC50
Lab note: write the figure by itself, no unit.

Recorded fold increase in Dox EC50, per entry:
O=C(NC(=S)Nc1ccccc1N1CCOCC1)c1ccc(-c2cccc(Cl)c2)o1 | 0.41
CCc1c(C)sc(NC(=O)c2cc(CC(C)C)on2)c1C#N | 0.64
O=C(O)c1ccc(N/N=C/c2ccc(F)c(F)c2)cc1 | 1.31
Cc1cc(C)n(CCc2nc(-c3ccc(-c4ccccc4)cc3)cs2)n1 | 1.82

For the molecule shown here, `Cc1cc(C(=O)N/N=C/c2cc(Br)ccc2OC(=O)c2ccccc2)n[nH]1` , give the reported fold increase in Dox EC50.
0.15

----------
# System: MRP1 cells, doxorubicin viability shift, 10 uM compound
# Method: viability protection against doxorubicin, MRP-1 line – cell-based, doxorubicin EC50 shift, dose response (AID 844)
Quantity name: fold increase in Dox EC50
Just the number, please, no unit after it.

Here's what some known entries look like.
CCOc1ccc2c(c1)c(N=O)c(O)n2C | 0.58
Cc1ccc(OCc2nc(-c3ccc(Cl)cc3)n[nH]2)cc1 | 0.79
CCOC(=O)c1sc(-c2ccccc2)cc1NC(=O)Nc1ccccc1 | 0.4
Cc1ccc(Nc2nc(CSc3nnnn3C)cs2)cc1 | 1.18
CCOC(=O)c1csc(NC(=O)c2ccccc2)n1 | 0.86
CCc1nnc(NC(=O)C(C)N2C(=O)C3C4C=CC(C4)C3C2=O)s1 (configuration not stated) | 1.01
O=C(COc1ccc(Br)cc1)c1ccc2c(c1)CCCC2 | 1.17
Cc1nn(Cc2ccccc2)c(C)c1NC(=O)c1noc2c1CCc1ccccc1-2 | 0.95
Cc1nc(=O)c(-c2ccccc2)c(C)n1-c1ccc(C(=O)O)cc1 | 1.3
CCc1nnc(NC(=O)c2ccc(-c3ccc(Cl)cc3)o2)s1 | 1.19

For the record `Cc1ccc(N/N=C(\C#N)C(=N)N2CCOCC2)cc1` , what value of fold increase in Dox EC50 is listed for MRP1 cells, doxorubicin viability shift, 10 uM compound?
0.92

Provide value of fold increase in Dox EC50 for this record tested with MRP1 cells, doxorubicin viability shift, 10 uM compound: `CCCN1C(=O)/C(=N\OCC(=O)NC23CC4CC(CC(C4)C2)C3)c2ccccc21`
1.01

----------
# Test system: MRP1 cells, doxorubicin viability shift, 10 uM compound
# Method: viability protection against doxorubicin, MRP-1 line – cell-based, doxorubicin EC50 shift, dose response (AID 844)
Rule for this label: met means fold increase in Dox EC50 is less than 0.8; not met means fold increase in Dox EC50 is at least 0.8.

Cc1cccc(-n2c(N)cc(=O)nc2SCC(=O)Nc2nnc(C)s2)c1 | not met
Cc1ccc(/C=C2\SC(=S)N(CCC(=O)NNC(=O)c3cccnc3)C2=O)cc1 | not met
CCOC(=O)c1cc(-c2ccccc2)sc1NC(=O)C(C)Sc1nnc(N)s1 (stereo not drawn) | met

I'd appreciate it if you could check whether `COc1ccccc1-c1nc(C#N)c(N2CCc3ccccc3C2)o1` has fold increase in Dox EC50 smaller than 0.8.
met

Input `Cc1ccc(NC(=O)CNC(=O)c2cccs2)cc1S(=O)(=O)Nc1ccc(Cl)cc1` ; condition: fold increase in Dox EC50 strictly below 0.8. Does it hold?
not met

is_below(fold increase in Dox EC50, 0.8) for `CCOC(=O)CCCCC(=O)c1[nH]c(=O)[nH]c1CSc1nc(-c2ccccc2)c(C#N)c(=O)[nH]1` ?
not met
